Reference source for all entries: patent US9133204B2

Record form. Attribute: IC50. Fill in for each entry.
- system_under_test: P2X7 receptor (Homo sapiens, UniProt Q99572)
- Construct: host or cells: SH-SY5Y
- assay_notes: High throughput P2X7 calcium mobilization assay (Example 4A)
- Assay type: cell-based
- test_parameters: SH-SY5Y cells; 50% decrease in fluorescence response of cells exposed to 80 μM BzATP; Table I

Give IC50 for each listed item.
1. Cc1cnc(-n2cc(C(=O)NCC(CC(C)C)c3ccc(C(F)(F)F)cc3)c(C(F)(F)F)n2)nc1N (stereo not drawn) [Compound 171]
2. Cc1nn(-c2ncc(F)c(N)n2)cc1C(=O)NCC(CC(C)C)c1ccc(Cl)cc1 (stereo not drawn) [Compound 113]
3. O=C(NCC1(c2cccnc2)CCCCC1)c1sc(-c2cnccn2)nc1C(F)(F)F [Compound 316]
4. Nc1nccnc1-n1cc(C(=O)NCC2(c3cccnc3)CCCCC2)c(C(F)(F)F)n1 [Compound 157]
5. O=C(NCC1(c2cccnc2)CCCCC1)c1sc(-c2cccnc2)nc1C(F)(F)F [Compound 164]
6. CCn1nc(C)c(Br)c1C(=O)NCC12CC3CC(CC(C3)C1)C2 [Compound 63]
7. O=C(NCC12CC3CC(CC(C3)C1)C2)c1cnc(-c2ccccc2C(F)(F)F)s1 [Compound 67]
8. Cc1nn(-c2nccnc2N)cc1C(=O)NCC(CC(C)C)c1ccc(C(F)(F)F)cc1 (stereo not drawn) [Compound 179]

1: ≤ 2 µM; 2: ≤ 2 µM; 3: ≤ 2 µM; 4: ≤ 2 µM; 5: ≤ 2 µM; 6: ≤ 2 µM; 7: ≤ 2 µM; 8: ≤ 2 µM

----------
- system_under_test: P2X7 receptor (Homo sapiens, UniProt Q99572)
- Construct: host or cells: SH-SY5Y
- Sequence (Q99572 1-595): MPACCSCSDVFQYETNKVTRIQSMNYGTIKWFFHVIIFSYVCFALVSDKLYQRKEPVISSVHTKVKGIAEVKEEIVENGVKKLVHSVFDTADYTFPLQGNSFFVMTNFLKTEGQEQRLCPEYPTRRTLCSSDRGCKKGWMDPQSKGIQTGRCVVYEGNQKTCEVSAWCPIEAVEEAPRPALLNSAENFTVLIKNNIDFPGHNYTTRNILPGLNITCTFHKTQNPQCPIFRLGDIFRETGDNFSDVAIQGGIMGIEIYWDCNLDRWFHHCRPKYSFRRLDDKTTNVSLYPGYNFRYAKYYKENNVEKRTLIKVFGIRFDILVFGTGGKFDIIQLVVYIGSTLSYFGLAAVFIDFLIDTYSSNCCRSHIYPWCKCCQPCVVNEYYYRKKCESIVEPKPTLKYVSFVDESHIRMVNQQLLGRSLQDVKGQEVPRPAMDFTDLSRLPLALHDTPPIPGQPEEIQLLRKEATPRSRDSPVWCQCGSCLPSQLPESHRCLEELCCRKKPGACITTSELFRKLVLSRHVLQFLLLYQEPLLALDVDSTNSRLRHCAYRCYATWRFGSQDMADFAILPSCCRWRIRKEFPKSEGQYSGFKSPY
- assay_notes: High throughput P2X7 calcium mobilization assay (Example 4A)
- Format: cell-based
- test_parameters: SH-SY5Y cells; 50% decrease in fluorescence response of cells exposed to 80 μM BzATP; Table I
measured_property: IC50

Example cases with answers are listed next.
CC(C)n1cc(C2(CNC(=O)c3sc(-c4ncccn4)nc3C(F)(F)F)CCCCC2)cn1 : ≤ 2 µM
CCc1cnc(-n2cc(C(=O)NCC34CC5CC(CC(C5)C3)C4)c(C)n2)nc1 : ≤ 2 µM

Turning now to a further record.
Return reported IC50; argument: Nc1ccnc(-n2cc(C(=O)NCC34CC5CC(CC(C5)C3)C4)c(C3CC3)n2)n1 ≤ 2 µM

----------
- system_under_test: P2X7 receptor (Homo sapiens, UniProt Q99572)
- Construct: host or cells: SH-SY5Y
- assay_notes: High throughput P2X7 calcium mobilization assay (Example 4A)
- Assay type: cell-based
- test_parameters: SH-SY5Y cells; 50% decrease in fluorescence response of cells exposed to 80 μM BzATP; Table I
measured_property: IC50

Example cases with answers are listed next.
Cc1cccnc1-n1cc(C(=O)NCC23CC4CC(CC(C4)C2)C3)c(C(F)(F)F)n1 [Compound 132] : ≤ 2000 nM
O=C(NCC1(c2ccc(Cl)nc2)CCCC1)c1sc(-c2ncccn2)nc1C(F)(F)F [Compound 287] : ≤ 2000 nM
CC(C)CC(CNC(=O)c1cn(-c2ncccn2)nc1C(F)(F)F)c1cccnc1 (stereo not shown) [Compound 203] : ≤ 2000 nM

Turning now to a further record.
Return reported IC50; argument: CCc1nc(-c2ncccn2)sc1C(=O)NCC1(c2ccc(Cl)nc2)CCCCC1 [Compound 298] ≤ 2000 nM

----------
Record form. Attribute: pIC50. Fill in for each entry.
- system_under_test: P2X7 receptor (Homo sapiens)
- Construct: host or cells: SH-SY5Y
- assay_notes: High throughput P2X7 calcium mobilization assay (Example 4A)
- Assay type: cell-based
- test_parameters: SH-SY5Y cells; 50% decrease in fluorescence response of cells exposed to 80 μM BzATP; flag after the MS data in Examples 1-2
pIC50: −log10 of the molar value.

Example cases with answers are listed next.
Cc1ccc(C2(CNC(=O)c3cc(-c4ccccc4)nn3C)CCCCC2)cn1 : ≥ 5.70
Nc1nc(-n2cc(C(=O)NCC3(c4cccnc4)CCCCC3)c(C(F)(F)F)n2)ncc1F : ≥ 5.70
Cc1cnc(-n2cc(C(=O)NCC34CC5CC(CC(C5)C3)C4)c(C)n2)nc1C(=O)N1CCOCC1 : ≥ 5.70
Cn1nc(-c2ccccc2)cc1C(=O)NCC1(c2ccc(Cl)cc2)CCCCC1 : ≥ 5.70

Give pIC50 for each listed item.
1. Nc1nn(-c2ncccn2)cc1C(=O)NCC12CC3CC(CC(C3)C1)C2
2. O=C(NCC12CC3CC(CC(C3)C1)C2)c1cn(-c2ncccn2)nc1Cl
3. CC(C)CC(CNC(=O)c1cn(-c2ncccn2)nc1Cl)c1ccc(C(F)(F)F)cc1 (centres unmarked)
4. CN1CCN(C2(CNC(=O)c3sc(-c4ncccn4)nc3C(F)(F)F)CCCCCC2)CC1

1: ≥ 5.70; 2: ≥ 5.70; 3: ≥ 5.70; 4: ≥ 5.70

----------
Record form. Attribute: pIC50. Fill in for each entry.
- system_under_test: P2X7 receptor (Homo sapiens)
- Construct: host or cells: SH-SY5Y
- assay_notes: High throughput P2X7 calcium mobilization assay (Example 4A)
- Assay type: cell-based
- test_parameters: SH-SY5Y cells; 50% decrease in fluorescence response of cells exposed to 80 μM BzATP; Table I
pIC50: −log10 of the molar value.

Example cases with answers are listed next.
CCCC(CNC(=O)c1cn(-c2ncccn2)nc1C(F)(F)F)c1ccc(Cl)cc1 (centres unmarked) : ≥ 5.70
Cc1cnc(-n2cc(C(=O)NCC34CC5CC(CC(C5)C3)C4)c(C(F)(F)F)n2)nc1N : ≥ 5.70
Cc1cnc(-n2cc(C(=O)NCC34CC5CC(CC(C5)C3)C4)c(C)n2)nc1Br : ≥ 5.70
O=C(NCC(CCC1CCCCC1)c1ccccc1)c1cn(-c2ncccn2)nc1C(F)(F)F (centres unmarked) : ≥ 5.70
Cc1nn(-c2cncc(N)n2)cc1C(=O)NCC12CC3CC(CC(C3)C1)C2 : ≥ 5.70

Give pIC50 for each listed item.
1. CC(C)(C)OC(=O)NC1CCN(c2nc(C(F)(F)F)c(C(=O)NCC3(c4cccnc4)CCCCC3)s2)CC1
2. Cc1nc(-c2cccnc2)sc1C(=O)NCC1(c2cccnc2)CCCCC1

1: ≥ 5.70; 2: ≥ 5.70

Return reported pIC50; argument: O=C(NCC12CC3CC(CC(C3)C1)C2)c1c[nH]nc1C(F)(F)F ≥ 5.70

----------
Record form. Attribute: IC50. Fill in for each entry.
- system_under_test: P2X7 receptor (Homo sapiens)
- Construct: host or cells: SH-SY5Y
- assay_notes: High throughput P2X7 calcium mobilization assay (Example 4A)
- Type: cell-based
- test_parameters: SH-SY5Y cells; 50% decrease in fluorescence response of cells exposed to 80 μM BzATP; Table I

O=C(NCC1(c2cccnc2)CCCCC1)c1cn(-c2ncccn2)nc1C(F)(F)F : ≤ 2 µM

Give IC50 for each listed item.
1. Cc1cnc(-n2cc(C(=O)NCC(CC(C)C)c3ccc(C(F)(F)F)cc3)c(C(C)(C)C)n2)nc1N (centres unmarked)
2. Nc1cnc(-n2cc(C(=O)NCC34CC5CC(CC(C5)C3)C4)c(C(F)(F)F)n2)cn1
3. CCc1nc(-c2ncccn2)sc1C(=O)NCC(CC(C)C)c1ccc(C(F)(F)F)cc1 (centres unmarked)
4. O=C(NCC1(c2ccc(Cl)cc2)CCC1)c1cn(-c2ncccn2)nc1C(F)(F)F
5. Nc1cccnc1-n1cc(C(=O)NCC23CC4CC(CC(C4)C2)C3)c(C(F)(F)F)n1
6. CC(C)CC(CNC(=O)c1sc(-c2ncccn2)nc1C(F)(F)F)c1ccc(C(F)(F)F)nc1 (centres unmarked)

["≤ 2 µM", "≤ 2 µM", "≤ 2 µM", "≤ 2 µM", "≤ 2 µM", "≤ 2 µM"]

Return reported IC50; argument: O=C(NCC12CC3CC(CC(C3)C1)C2)c1cn(-c2cnccn2)nc1C(F)(F)F ≤ 2 µM
